experimentalTarget: Metabotropic glutamate receptor 7 (Homo sapiens, UniProt Q14831)
Sequence (Q14831 whole entry): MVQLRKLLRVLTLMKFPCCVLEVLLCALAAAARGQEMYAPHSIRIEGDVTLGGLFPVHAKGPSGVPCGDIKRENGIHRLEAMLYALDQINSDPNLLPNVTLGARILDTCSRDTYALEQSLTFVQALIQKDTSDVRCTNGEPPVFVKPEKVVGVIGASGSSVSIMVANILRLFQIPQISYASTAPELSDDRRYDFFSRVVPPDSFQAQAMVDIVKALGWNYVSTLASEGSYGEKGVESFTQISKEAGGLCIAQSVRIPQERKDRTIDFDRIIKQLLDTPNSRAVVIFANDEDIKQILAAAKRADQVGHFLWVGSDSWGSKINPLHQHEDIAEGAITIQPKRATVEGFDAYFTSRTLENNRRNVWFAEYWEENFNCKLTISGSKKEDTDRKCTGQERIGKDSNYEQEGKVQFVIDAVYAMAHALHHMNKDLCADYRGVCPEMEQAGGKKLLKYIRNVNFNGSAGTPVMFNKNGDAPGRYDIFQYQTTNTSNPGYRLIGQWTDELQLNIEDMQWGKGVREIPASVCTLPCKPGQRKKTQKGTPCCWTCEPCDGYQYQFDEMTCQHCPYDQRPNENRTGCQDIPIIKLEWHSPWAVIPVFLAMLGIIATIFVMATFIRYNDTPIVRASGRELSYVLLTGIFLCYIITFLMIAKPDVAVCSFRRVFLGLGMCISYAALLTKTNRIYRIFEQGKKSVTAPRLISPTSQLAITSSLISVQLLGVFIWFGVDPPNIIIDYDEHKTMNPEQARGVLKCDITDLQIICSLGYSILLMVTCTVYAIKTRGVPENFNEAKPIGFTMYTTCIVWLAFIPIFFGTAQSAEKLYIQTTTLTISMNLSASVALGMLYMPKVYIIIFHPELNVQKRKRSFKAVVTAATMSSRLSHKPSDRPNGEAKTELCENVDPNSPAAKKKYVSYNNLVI
assayProtocol: Agonist potency against cloned Metabotropic glutamate receptor 7 (mGluR-7).
Assay type: functional
measuredMetric: Ki

# compound, endpointResult
measured = [
    ("N[C@@]1(C(=O)O)CC[C@@H](C(=O)O)C1", "> 1000 µM"),
    ("N[C@@]1(C(=O)O)CSC2C1[C@H]2C(=O)O (stereo partly drawn)", "> 100 µM"),
    ("N[C@@]1(C(=O)O)CO[C@H]2[C@H](C(=O)O)[C@H]21", "> 100 µM"),
    ("N[C@@]1(C(=O)O)CN[C@@H](C(=O)O)C1", "> 300 µM"),
    ("Cc1ccc(O)c(/N=N/c2ccccc2)n1", "> 100 µM"),
    ("Cc1cccc(C#Cc2ccccc2)n1", "> 100 µM"),
    ("N[C@H](C(=O)O)[C@H]1C[C@@H]1C(=O)O", "230 µM"),
    ("N[C@@]1(C(=O)O)CC[C@H]2[C@H](C(=O)O)[C@H]21", "> 100 µM"),
    ("NC(C(=O)O)c1ccc(P(=O)(O)O)cc1 (stereo not drawn)", "185 µM"),
    ("N[C@@H](CCP(=O)(O)O)C(=O)O", "175 µM"),
    ("N[C@@H](CCC(=O)O)C(=O)O", "5400 µM"),
    ("N[C@H](C(=O)O)c1cc(O)cc(O)c1", "> 1000 µM"),
    ("CCOC(=O)C12CC1/C(=N\\O)c1ccccc1O2 (stereo not drawn)", "> 100 µM"),
    ("N[C@@H](C[C@H](CCCC(c1ccccc1)c1ccccc1)C(=O)O)C(=O)O", "> 300 µM"),
    ("N[C@@H](C[C@H](CC(c1ccccc1)c1ccccc1)C(=O)O)C(=O)O", "> 300 µM"),
    ("Cc1cccc(/C=C/c2ccccc2)n1", "> 100 µM"),
    ("Cc1onc(O)c1CC[C@H](N)C(=O)O", "> 5000 µM"),
    ("N[C@](CC1c2ccccc2Oc2ccccc21)(C(=O)O)[C@H]1C[C@@H]1C(=O)O", "0.99 µM"),
]
